# Measured Target: PICK1, Q9NRD5
# Sequence (Q9NRD5 17-115): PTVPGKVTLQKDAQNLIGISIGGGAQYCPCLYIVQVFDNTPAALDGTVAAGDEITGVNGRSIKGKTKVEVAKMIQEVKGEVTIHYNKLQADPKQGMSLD
# Assay Overview: holdup assay
# Design: key: below the threshold = too weak to quantify, mostly under pKd 3.1 to 4
# Test Context: plain residues with an end cap or a label only (N-terminal biotin on a linker: ado-ado)
Observation Type: pKd

| Binder | Observation Type | Result |
| --- | --- | --- |
| MQILSKPEFI [NPSR1, Q6W5P4] | pKd | 4.08 |
| PALKNGQYWV [CSPG4, Q6UVK1] | pKd | below the threshold |
| PGKKPEDSRV [SLCO2B1, O94956] | pKd | below the threshold |
